Consider the following sequences; for each one, report its PBM binding z-score.
Test system: RARa:RXR (NR concentration 270 nM, RXRa partner concentration 90 nM)
Experiment: PBM binding z-score (relative to random genomic background probes); higher = stronger binding; sequences stand for … in GC…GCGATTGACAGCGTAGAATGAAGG
Simply state the number, no unit and no words.

Ask | What value of PBM binding z-score has been reported for the following sequence? GCATATAGGTAATACAAGCTGAAAGTCCGATTGT
Reply | 0.243

Ask | Can you check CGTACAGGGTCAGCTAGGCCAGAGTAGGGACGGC next?
Reply | 3.32

Ask | Can you check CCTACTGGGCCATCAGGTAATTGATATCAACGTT next?
Reply | -0.328

Ask | Can you check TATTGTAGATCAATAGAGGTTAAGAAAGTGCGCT next?
Reply | 1.71

Ask | Can you check TCTTGTAGATCAAACAGGTTAAGAAAGCCTGAGT next?
Reply | 0.849

Ask | Can you check CCTCAGAGGACAGAAGGTCAGAGCTGTCCGCTTT next?
Reply | 2.01

Ask | Can you check TATACAGGGTCAAAGGACAGAGTACGAATGTCGA next?
Reply | 4.56

Ask | Can you check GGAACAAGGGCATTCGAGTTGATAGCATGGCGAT next?
Reply | 0.884

Ask | Can you check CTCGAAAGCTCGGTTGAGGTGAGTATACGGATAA next?
Reply | 0.034

Ask | Can you check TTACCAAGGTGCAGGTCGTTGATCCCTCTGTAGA next?
Reply | 0.7

Ask | Can you check CCTAATTGGTCAGGAGGTCACACACCGGATATGA next?
Reply | 4.5

Ask | Can you check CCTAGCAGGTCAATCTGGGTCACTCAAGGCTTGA next?
Reply | 4.45

Ask | Can you check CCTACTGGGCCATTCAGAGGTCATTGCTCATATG next?
Reply | 4.24

Ask | Can you check GGAACGTGGGCAAGTTGATAGCAGAGTTTGATGG next?
Reply | -0.634

Ask | Can you check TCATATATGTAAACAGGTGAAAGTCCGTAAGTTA next?
Reply | 1.24

Ask | Can you check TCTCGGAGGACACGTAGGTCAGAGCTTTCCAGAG next?
Reply | 0.992

Ask | Can you check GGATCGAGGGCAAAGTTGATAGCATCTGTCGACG next?
Reply | 1.65

Ask | Can you check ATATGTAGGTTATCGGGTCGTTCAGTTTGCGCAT next?
Reply | 1.62

Ask | Can you check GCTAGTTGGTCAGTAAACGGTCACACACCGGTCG next?
Reply | 0.591

Ask | Can you check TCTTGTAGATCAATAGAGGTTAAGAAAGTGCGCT next?
Reply | 1.67

Ask | Can you check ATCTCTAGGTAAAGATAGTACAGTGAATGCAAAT next?
Reply | 0.0539

Ask | Can you check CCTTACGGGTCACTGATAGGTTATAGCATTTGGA next?
Reply | 4.43

Ask | Can you check TGAATGATGTTATAAGATCAGGGAACGTTGCAAA next?
Reply | 0.123

Ask | Can you check TCTCGTAGATCAATAGAGGTTAAGAAAGTGCGCT next?
Reply | 1.6

Ask | Can you check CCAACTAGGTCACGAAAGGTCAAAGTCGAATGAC next?
Reply | 7.39

Ask | Can you check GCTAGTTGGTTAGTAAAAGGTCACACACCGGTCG next?
Reply | 6.05

Ask | Can you check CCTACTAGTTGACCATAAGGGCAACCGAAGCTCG next?
Reply | 0.81

Ask | Can you check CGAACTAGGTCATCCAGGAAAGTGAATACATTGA next?
Reply | 2.49

Ask | Can you check ATCTGTAGGTAACAAGTTCAGTGAAAGAGAGGAC next?
Reply | 1.16

Ask | Can you check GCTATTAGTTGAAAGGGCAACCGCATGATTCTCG next?
Reply | 1.39

Ask | Can you check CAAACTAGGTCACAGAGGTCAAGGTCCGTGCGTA next?
Reply | 7.58

Ask | Can you check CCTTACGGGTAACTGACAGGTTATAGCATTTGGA next?
Reply | 0.585

Ask | Can you check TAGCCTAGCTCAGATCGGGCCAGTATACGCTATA next?
Reply | -1.21

Ask | Can you check GGAAAGAGGGCATTCGAGTTGATAGCATGGCGAT next?
Reply | 1.75

Ask | Can you check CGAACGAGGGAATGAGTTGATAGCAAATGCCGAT next?
Reply | -0.875

Ask | Can you check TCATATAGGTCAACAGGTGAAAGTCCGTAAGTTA next?
Reply | 4.84

Ask | Can you check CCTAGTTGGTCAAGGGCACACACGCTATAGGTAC next?
Reply | 0.731

Ask | Can you check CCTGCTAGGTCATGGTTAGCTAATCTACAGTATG next?
Reply | 2.44

Ask | Can you check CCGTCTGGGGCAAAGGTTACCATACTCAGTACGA next?
Reply | 4.24

Ask | Can you check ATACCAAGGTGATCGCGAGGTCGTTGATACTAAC next?
Reply | 1.84

Ask | Can you check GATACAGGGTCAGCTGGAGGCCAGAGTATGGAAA next?
Reply | 5.12

Ask | Can you check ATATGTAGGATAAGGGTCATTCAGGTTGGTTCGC next?
Reply | 4.72

Ask | Can you check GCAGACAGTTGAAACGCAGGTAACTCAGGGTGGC next?
Reply | 0.0801

Ask | Can you check CCGACTGGGGCATAAGGGTACCATAAGCCAGCCC next?
Reply | -0.246

Ask | Can you check CAAACTCGGTCAAAGGTCAAAGTCGAGCCAACCA next?
Reply | 8.37
